# procedureDetails: LNP particle size and polydispersity by dynamic light scattering
# Type: physicochemical
# recordedConditions: LNP containing ionizable lipid and a 4.2 kDa acidic peptide (net charge -3)
parameter: Polydispersity index (PDI)

Query block: Can you look up the measured Polydispersity index (PDI) of CCCCC/C=C\C/C=C\CCCCCCCC(=O)O[C@@H](CCCCCCCC)[C@@H](CCCCCCCC(=O)OCCN(CC)CC)OC(=O)CCCCCCC/C=C\C/C=C\CCCCC (racemic) for me?
Result block: 0.034

Query block: Can you look up the measured Polydispersity index (PDI) of CCCCC/C=C\C/C=C\CCCCCCCC(=O)O[C@@H](CCCCCCCC)[C@@H](CCCCCCCC(=O)OCCN(C)C)OC(=O)CCCCCCC/C=C\C/C=C\CCCCC (racemic) for me?
Result block: 0.021

Query block: Can you look up the measured Polydispersity index (PDI) of CCCCC/C=C\C/C=C\CCCCCCCC(=O)O[C@@H](CCCCCCCC)[C@@H](CCCCCCCC(=O)OCCCN(C)C)OC(=O)CCCCCCC/C=C\C/C=C\CCCCC (racemic) for me?
Result block: 0.031

a. CCCCC/C=C\C/C=C\CCCCCCCC(=O)O[C@@H](CCCCCCCC)[C@@H](CCCCCCCC(=O)OCCCN(CC)CC)OC(=O)CCCCCCC/C=C\C/C=C\CCCCC (racemic)
b. CCCCCCCCC(CCCCCC)C(=O)O[C@@H](CCCCCCCC)[C@@H](CCCCCCCC(=O)OCCCN(CC)CC)OC(=O)C(CCCCCC)CCCCCCCC (mixture of isomers)
Query block: Would you let me know which has the greater Polydispersity index (PDI) value, a or b ? Answer = label.
Result block: b

Measured values drawn from patent US20220304929A1 for this set.
